- test_system: T1, EsCas13d, nuclease-dead (Eubacterium siraeum, UniProt B0MS50, R295A;H300A;R849A;H854A)
- T1 sequence: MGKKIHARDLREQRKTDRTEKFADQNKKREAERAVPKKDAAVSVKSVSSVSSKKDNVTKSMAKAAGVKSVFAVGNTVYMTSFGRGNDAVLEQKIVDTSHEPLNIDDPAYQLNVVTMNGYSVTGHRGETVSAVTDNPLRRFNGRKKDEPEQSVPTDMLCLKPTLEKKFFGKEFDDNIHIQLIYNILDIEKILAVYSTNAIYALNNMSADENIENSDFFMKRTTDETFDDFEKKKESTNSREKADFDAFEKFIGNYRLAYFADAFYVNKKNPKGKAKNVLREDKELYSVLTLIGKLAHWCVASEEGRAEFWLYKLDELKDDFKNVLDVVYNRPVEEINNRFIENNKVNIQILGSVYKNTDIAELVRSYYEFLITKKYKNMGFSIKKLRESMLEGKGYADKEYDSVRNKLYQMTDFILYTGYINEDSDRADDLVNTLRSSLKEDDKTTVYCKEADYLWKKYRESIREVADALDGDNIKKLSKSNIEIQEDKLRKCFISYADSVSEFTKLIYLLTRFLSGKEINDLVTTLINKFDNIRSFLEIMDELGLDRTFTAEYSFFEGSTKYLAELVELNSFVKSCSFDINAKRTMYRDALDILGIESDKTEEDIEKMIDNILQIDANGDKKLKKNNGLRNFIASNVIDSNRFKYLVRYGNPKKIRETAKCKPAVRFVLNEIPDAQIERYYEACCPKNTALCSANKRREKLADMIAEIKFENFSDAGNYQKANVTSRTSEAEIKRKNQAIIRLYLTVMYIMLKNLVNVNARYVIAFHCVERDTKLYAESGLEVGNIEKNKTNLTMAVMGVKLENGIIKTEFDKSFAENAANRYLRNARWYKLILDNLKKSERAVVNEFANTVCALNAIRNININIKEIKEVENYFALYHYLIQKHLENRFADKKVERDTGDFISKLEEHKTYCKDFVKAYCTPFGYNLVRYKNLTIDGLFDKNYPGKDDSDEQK
- protocol_description: crRNA (strand 1, pre-loaded); Mg2+; 40 mM Tris-HCl pH 7.5, 150 mM NaCl, 6 mM MgCl2, 1 mM DTT, 0.1% Tween-20, 0.2 mg/ml BSA; 25 C; 10 min per concentration, then washed
- condition_description: tags: His6-TwinStrep-SUMO cleaved; N-terminal SNAP kept (SNAP-Surface 488); label: 3' end held by stalled T7 RNA polymerase
Exercise: state measured Kd for each of the binders provided.
Provide only the numeric value, understood in nM.

**Q:** // returns reported Kd for input target 1 MT 5'PFS GAC 3'PFS UUC (mixed) RNA 1: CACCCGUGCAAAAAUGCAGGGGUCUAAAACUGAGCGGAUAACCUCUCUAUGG RNA 2: GGGAAUGGAUCCACAUCUACGAAUUCGACCCAUAGAGAGGUUAUCCGCUCAUUCAGAUCGGAAGAGCACACGU
**A:** 14.1

**Q:** // returns reported Kd for input target 1 MT 5'PFS AAA 3'PFS UGA (mixed) RNA 1: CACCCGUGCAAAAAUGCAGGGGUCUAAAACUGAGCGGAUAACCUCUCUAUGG RNA 2: GGGAAUGGAUCCACAUCUACGAAUUCAAACCAUAGAGAGGUUAUCCGCUCAUGAAGAUCGGAAGAGCACACGU
**A:** 20.1

**Q:** // returns reported Kd for input target 1 C7U,U10G (mixed) RNA 1: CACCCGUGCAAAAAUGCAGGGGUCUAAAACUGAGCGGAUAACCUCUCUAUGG RNA 2: GGGAAUGGAUCCACAUCUACGAAUUCGUACCAUAGAGAGGUGAUUCGCUCACCGAGAUCGGAAGAGCACACGU
**A:** 11.2

**Q:** // returns reported Kd for input target 2 MT 5'PFS UCA 3'PFS ACU (mixed) RNA 1: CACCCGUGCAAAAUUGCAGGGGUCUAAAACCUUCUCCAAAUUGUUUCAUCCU RNA 2: GGGAAUGGAUCCACAUCUACGAAUUCUCAAGGAUGAAACAAUUUGGAGAAGACUAGAUCGGAAGAGCACACGU
**A:** 7

Measured values drawn from paper PMC10786891 for this set.
